Sourced from patent US20100216779A1

# System Under Test: human IGF-1R (NIH-3T3 cells over expressing human IGF-1R) (Homo sapiens)
# Sequence (P08069 31-1367): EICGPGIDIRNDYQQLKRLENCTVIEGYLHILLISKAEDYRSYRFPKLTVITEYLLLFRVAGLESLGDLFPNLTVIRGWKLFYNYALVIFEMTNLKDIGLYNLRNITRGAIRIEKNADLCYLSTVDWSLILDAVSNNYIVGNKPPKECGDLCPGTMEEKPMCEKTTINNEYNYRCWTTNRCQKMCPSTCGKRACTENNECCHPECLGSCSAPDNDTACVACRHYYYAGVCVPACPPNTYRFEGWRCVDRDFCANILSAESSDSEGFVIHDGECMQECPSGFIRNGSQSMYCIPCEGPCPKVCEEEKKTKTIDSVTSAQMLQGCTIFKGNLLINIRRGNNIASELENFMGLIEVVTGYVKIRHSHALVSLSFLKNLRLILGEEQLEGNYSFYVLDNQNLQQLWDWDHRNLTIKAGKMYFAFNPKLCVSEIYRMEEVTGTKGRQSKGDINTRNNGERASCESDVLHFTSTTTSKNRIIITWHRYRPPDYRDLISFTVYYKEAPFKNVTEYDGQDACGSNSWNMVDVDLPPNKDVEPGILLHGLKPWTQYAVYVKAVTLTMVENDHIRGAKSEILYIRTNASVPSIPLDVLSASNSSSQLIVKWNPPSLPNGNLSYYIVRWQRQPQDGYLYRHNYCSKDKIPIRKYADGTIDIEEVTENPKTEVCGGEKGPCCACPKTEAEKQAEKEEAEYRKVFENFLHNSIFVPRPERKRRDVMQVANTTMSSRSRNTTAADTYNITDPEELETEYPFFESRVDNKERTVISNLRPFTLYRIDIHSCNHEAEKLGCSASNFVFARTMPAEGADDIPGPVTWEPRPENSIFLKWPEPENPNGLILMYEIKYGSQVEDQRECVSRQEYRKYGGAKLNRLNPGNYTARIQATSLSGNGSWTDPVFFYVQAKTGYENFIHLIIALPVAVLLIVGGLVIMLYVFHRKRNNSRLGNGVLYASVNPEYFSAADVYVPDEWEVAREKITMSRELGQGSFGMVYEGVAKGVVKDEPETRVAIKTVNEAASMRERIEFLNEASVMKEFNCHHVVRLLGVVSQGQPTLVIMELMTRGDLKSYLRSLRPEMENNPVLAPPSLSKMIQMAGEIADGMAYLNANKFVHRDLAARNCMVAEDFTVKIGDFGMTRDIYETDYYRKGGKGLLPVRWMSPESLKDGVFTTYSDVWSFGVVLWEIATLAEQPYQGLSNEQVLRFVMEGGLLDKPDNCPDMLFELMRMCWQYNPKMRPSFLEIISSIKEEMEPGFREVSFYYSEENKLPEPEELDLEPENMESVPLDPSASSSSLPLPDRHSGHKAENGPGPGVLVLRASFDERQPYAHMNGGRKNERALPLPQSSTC
# Test Summary: IGF-1R cellular autophosphorylation (DELFIA)
# Assay Setup: IGF-1 stimulated
pIC50: −log10 of the molar value.
Experimental Endpoint: pIC50

Query block: Give a short answer stating reported pIC50 for COc1cc(N2CCC(N3CCN(CCF)C(=O)C3)CC2)ccc1Nc1nccc(-c2c(-c3cccc(C(=O)Nc4c(F)cccc4F)c3)nc3ccccn23)n1 [Example 121] .
Result block: > 7.00

Query block: Specify measured pIC50 for CCOc1ccc(-c2nc3ccccn3c2-c2ccnc(Nc3ccc(N4CCC(N5CCC(CCS(C)(=O)=O)CC5)CC4)cc3OC)n2)cc1C(=O)Nc1c(F)cccc1F [Example 103] .
Result block: > 7.00

Query block: Fill in reported pIC50 for this entry: COc1ccn2c(-c3ccnc(Nc4cccc(OCCN(C)C)c4)n3)c(-c3cccc(C(=O)Nc4cccc(F)c4F)c3)nc2c1 [Example 15]
Result block: 6.30 to 7.00

Query block: Supply reported pIC50 belonging to this compound: COCCN1CCN(c2ccc(Nc3nccc(-c4c(-c5cccc(C(=O)Nc6c(F)cccc6F)c5)nc5ccccn45)n3)c(OC)c2)CC1 [Example 240]
Result block: > 7.00

Query block: Look up and report measured pIC50 for this entry: COc1cc(N2CCC(N3CCN(CCF)CC3)CC2)c(OC)cc1Nc1nccc(-c2c(-c3cccc(C(=O)Nc4c(F)cccc4F)c3)nc3ccccn23)n1 [Example 111]
Result block: > 7.00

Query block: Given the compound COc1cc(N2CCC(N3CCCCC3)CC2)ccc1Nc1nccc(-c2c(-c3cccc(C(=O)Nc4c(F)cccc4F)c3)nc3c(F)cccn23)n1 [Example 190] , write its reported pIC50.
Result block: > 7.00

Query block: Tell us which pIC50 value is on record for COc1cc(CCN2CCCCC2)c(F)cc1Nc1nccc(-c2c(-c3cccc(C(=O)Nc4c(F)cc(F)cc4F)c3)nc3ccccn23)n1 [Example 129]
Result block: 6.30 to 7.00

Query block: Quickly give me recorded pIC50 for COc1cc(N2CCN(C3CCN(CCF)CC3)CC2)ccc1Nc1nccc(-c2c(-c3cccc(C(=O)Nc4c(F)cccc4F)c3)nc3ccccn23)n1 [Example 90]
Result block: > 7.00

Query block: Look up pIC50 of CCCN1CCN(c2ccc(Nc3nccc(-c4c(-c5ccc(OCC)c(C(=O)Nc6c(F)cccc6F)c5)nc5ccccn45)n3)c(OC)c2)CC1 [Example 178] and report it.
Result block: > 7.00

Query block: Let me know recorded pIC50 for CCOc1ccc(-c2nc3ccccn3c2-c2ccnc(Nc3ccc(N4CCN(CCOC)CC4)cc3OC)n2)cc1C(=O)Nc1c(F)cccc1F [Example 238] , thanks.
Result block: > 7.00

Query block: Supply measured pIC50 of COc1cc(N2CCC(N3CCCCC3)CC2)c(Cl)cc1Nc1nccc(-c2c(-c3ccc(OC)c(C(=O)Nc4c(F)cccc4F)c3)nc3ccccn23)n1 [Example 105] in your reply.
Result block: > 7.00

Query block: Input CCOc1cc(N2CCC(N3CCN(CCC(F)(F)F)CC3)CC2)ccc1Nc1nccc(-c2c(-c3cccc(C(=O)Nc4c(F)cccc4F)c3)nc3ccccn23)n1 [Example 118] , output reported pIC50.
Result block: 6.30 to 7.00

Query block: Indicate its recorded pIC50; the compound in question is COc1cc(N2CCN(CCS(C)(=O)=O)CC2)ccc1Nc1nccc(-c2c(-c3cccc(C(=O)Nc4c(F)cccc4F)c3)nc3ccccn23)n1 [Example 136]
Result block: > 7.00

Query block: State its pIC50 for this compound: COc1cc(CCCN2CCCCC2)ccc1Nc1nccc(-c2c(-c3cccc(C(=O)Nc4c(F)cccc4F)c3)nc3ccccn23)n1 [Example 139]
Result block: > 7.00

Query block: State, in one line, measured pIC50 of CCOc1cc(C2CCN(CCS(C)(=O)=O)CC2)ccc1Nc1nccc(-c2c(-c3ccc(OCC)c(C(=O)Nc4c(F)cccc4F)c3)nc3ccccn23)n1 [Example 185]
Result block: > 7.00

Query block: Give reported pIC50 value for CCc1cc(Nc2nccc(-c3c(-c4cccc(C(=O)Nc5c(F)cccc5F)c4)nc4ccccn34)n2)c(OC)cc1N1CCC(N2CCN(S(C)(=O)=O)CC2)CC1 [Example 244]
Result block: > 7.00

Query block: Identify measured pIC50 corresponding to CCOc1ccc(-c2nc3ccccn3c2-c2ccnc(Nc3cc(Cl)c(N4CCN(CCS(C)(=O)=O)CC4)cc3OC)n2)cc1C(=O)Nc1c(F)cccc1F [Example 212]
Result block: > 7.00

Query block: Consider the compound COc1cc(N2CCC(C3CCN(CCS(C)(=O)=O)CC3)CC2)ccc1Nc1nccc(-c2c(-c3ccc(OC)c(C(=O)Nc4c(F)cccc4F)c3)nc3ccccn23)n1 [Example 98] . State its measured pIC50.
Result block: > 7.00

Query block: Provide measured pIC50 value, entry: COc1cc(N2CCC(N3CCN(CCF)CC3)CC2)ccc1Nc1nccc(-c2c(-c3ccc(OC)c(C(=O)Nc4c(F)cccc4F)c3)nc3ccccn23)n1 [Example 61]
Result block: > 7.00

Query block: For the compound CCOc1cc(N2CCC(CCS(C)(=O)=O)CC2)c(C)cc1Nc1nccc(-c2c(-c3ccc(OC)c(C(=O)Nc4c(F)cccc4F)c3)nc3ccccn23)n1 [Example 219] , give its reported pIC50.
Result block: > 7.00

Query block: Query pIC50 for COc1ccn2c(-c3ccnc(Nc4ccc(N5CCC(N6CCCCC6)CC5)cc4OC)n3)c(-c3ccc(OC)c(C(=O)Nc4c(F)cccc4F)c3)nc2c1 [Example 5]
Result block: > 7.00

Query block: Indicate the recorded pIC50 value for this compound: COc1cc(N2CCC(N3CCCCC3)CC2)ccc1Nc1nccc(-c2c(-c3ccc(OC)c(C(=O)Nc4c(F)cccc4F)c3)nc3ccccn23)n1 [Example 23]
Result block: > 7.00

Query block: Output measured pIC50 for this item: COc1cc(N2CCC(N3CCC(CCS(C)(=O)=O)CC3)CC2)ccc1Nc1nccc(-c2c(-c3ccc(OC)c(C(=O)Nc4c(F)cccc4F)c3)nc3ccccn23)n1 [Example 102]
Result block: > 7.00
